Documented inhibition at 25 µM across a set of molecules
Tested on: T. cruzi Tulahuen C4 intracellular amastigotes
Test: β-D-galactosidase transgenic T. cruzi assay (intracellular amastigotes in L6 cells, CPRG)
Format: cell-based
Settings: Trypanosoma cruzi, TULAHUEN, L6; T. cruzi amastigotes, 96-hour treatment, 25 µM; read-out: Growth inhibition (%) Average
Unit % implied. Number only.

{"molecule": "C/C1=C\\[C@H](C)[C@@H](O)C[C@@H](O)/C(C)=C/[C@H](C)C[C@@H](C)CC[C@@H]([C@@H](C)C(=O)O)OC(=O)[C@@H](C)C1 [Strasseriolide D, strasseriolide D]", "inhibition at 25 µM, %": 112}
{"molecule": "C/C1=C\\[C@H](C)CCC(=O)/C(C)=C/[C@H](C)C[C@@H](C)CC[C@@H]([C@@H](C)C(=O)O)OC(=O)[C@@H](C)C1 [Strasseriolide A, strasseriolide A]", "inhibition at 25 µM, %": 39.4}
{"molecule": "C/C1=C\\[C@H](C)CC[C@@H](O)/C(C)=C/[C@H](C)C[C@@H](C)CC[C@@H]([C@@H](C)C(=O)O)OC(=O)[C@@H](C)C1 [Strasseriolide B, strasseriolide B]", "inhibition at 25 µM, %": 115}
{"molecule": "O=C(Cn1ccnc1[N+](=O)[O-])NCc1ccccc1 [Benznidazole, benznidazole]", "inhibition at 25 µM, %": 106}

Proceed to the following item.
Query: Dear colleague, I am looking for the recorded inhibition at 25 µM of the following molecule: C/C1=C\[C@H](C)C(=O)C[C@@H](O)/C(C)=C/[C@H](C)C[C@@H](C)CC[C@@H]([C@@H](C)C(=O)O)OC(=O)[C@@H](C)C1 [Strasseriolide C, strasseriolide C]
Result: 112

====

Tested on: T. b. brucei 427 bloodstream forms
Assay: Resazurin-based T. b. brucei assay
Type: cell-based
Details: Trypanosoma brucei; T. b. brucei 427 bloodstream forms, 72 h; read-out: EC50 T. brucei
Where a name gives a salt, the structure may show the parent alone.
parameterMeasured: EC50 (nM)
Give the value in nM but do not write nM after it.

Query: Need EC50, item N=C(N)c1ccc(OCCCCCOc2ccc(C(=N)N)cc2)cc1 [Pentamidine, pentamidine isethionate salt, reference compound]
Result: 2

====

System: L6 rat myoblast cells
Assay: Cytotoxicity evaluation in L6 cells (resazurin)
Type: cell-based
Details: Rattus norvegicus, Myoblast, 72 h, read-out: EC50 L6
parameterMeasured: pEC50
# log scale: pEC50 equals minus log10 of the concentration in mol/L

Query: For C/C1=C\[C@H](C)CC[C@@H](O)/C(C)=C/[C@H](C)C[C@@H](C)CC[C@@H]([C@@H](C)C(=O)O)OC(=O)[C@@H](C)C1 [Strasseriolide B, strasseriolide B] , what is its reported pEC50?
Result: 6.52

====

Test system: T. cruzi Tulahuen C4 intracellular amastigotes
Assay: β-D-galactosidase transgenic T. cruzi assay (intracellular amastigotes in L6 cells, CPRG)
Format: cell-based
Settings: Trypanosoma cruzi, TULAHUEN, L6; T. cruzi amastigotes, 96-hour treatment, 3.125 µM; read-out: Growth inhibition (%) Average
Output 1.0 for inhibition at 3.125 µM not less than 60%; output 0.0 otherwise.

{"compound": "C/C1=C\\[C@H](C)[C@@H](O)C[C@@H](O)/C(C)=C/[C@H](C)C[C@@H](C)CC[C@@H]([C@@H](C)C(=O)O)OC(=O)[C@@H](C)C1 [Strasseriolide D, strasseriolide D]", "qualitativeLabel": 0.0}

Query: Does inhibition at 3.125 µM meet or surpass 60% for "O=C(Cn1ccnc1[N+](=O)[O-])NCc1ccccc1" ?
Result: 1.0

Query: API: above_or_equal(metric=inhibition at 3.125 µM, cutoff=60%) for item C/C1=C\[C@H](C)CCC(=O)/C(C)=C/[C@H](C)C[C@@H](C)CC[C@@H]([C@@H](C)C(=O)O)OC(=O)[C@@H](C)C1 [Strasseriolide A, strasseriolide A]
Result: 0.0

Query: State whether the measured inhibition at 3.125 µM reaches 60%, counting equality as reaching it, for C/C1=C\[C@H](C)CC[C@@H](O)/C(C)=C/[C@H](C)C[C@@H](C)CC[C@@H]([C@@H](C)C(=O)O)OC(=O)[C@@H](C)C1 [Strasseriolide B, strasseriolide B]
Result: 1.0
